Assign koff to each entry below.
Target: T1, canine NGF tagged at the C-terminus with the Flag tag (canine, UniProt A0A8I3PYI3 122-241)
T1 construct: mature; Expressed with baculovirus technology; also called feline NGF (processed form identical)
T1 sequence (A0A8I3PYI3 entry or part of it): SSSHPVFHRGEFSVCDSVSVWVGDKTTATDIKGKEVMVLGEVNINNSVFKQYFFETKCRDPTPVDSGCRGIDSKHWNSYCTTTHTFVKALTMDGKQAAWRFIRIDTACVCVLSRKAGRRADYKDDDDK
Test: SPR off-rate screen, Fab-SASA on BSA chip

Q: For the binder felinized clone 101 Fab-SASA variant S62D (VH) (Fab, V domains shown, not shown: small tags and cut ends) VH: DVQLVESGGDLVKPGGSLRLTCVASGLSLTSSSMSWVRQAPGKGLQWVSTIYSNGGTYYTDDVKGRFTISKDNAENTLYLQMNNLKTEDTATYYCASIYYYDADYLHWYFDFWGQGALVTVSS VL: EIQMTQSPTSLSASVGDRVTITCRASEGISNNLSWYQQTPGKAPKLLIYATSNLHSGVPSRFSGSGSGTDFTLTISSLQPEDFATYYCQQGYKWPLTFGGGTKLEITR , what koff is on record?
Ans: 0.00056 s⁻¹

Q: Would you kindly repeat that for felinized clone 101 Fab-SASA variant G55Y (VH) (Fab, V domains shown, not shown: small tags and cut ends) VH: DVQLVESGGDLVKPGGSLRLTCVASGLSLTSSSMSWVRQAPGKGLQWVSTIYSNYGTYYTDSVKGRFTISKDNAENTLYLQMNNLKTEDTATYYCASIYYYDADYLHWYFDFWGQGALVTVSS VL: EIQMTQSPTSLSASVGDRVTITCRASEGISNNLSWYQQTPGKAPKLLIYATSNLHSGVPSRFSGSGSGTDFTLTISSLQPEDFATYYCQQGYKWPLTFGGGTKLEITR ?
Ans: 0.000419 s⁻¹

Q: Would you kindly repeat that for felinized clone 101 Fab-SASA variant Y52W (VH) (Fab, V domains shown, not shown: small tags and cut ends) VH: DVQLVESGGDLVKPGGSLRLTCVASGLSLTSSSMSWVRQAPGKGLQWVSTIWSNGGTYYTDSVKGRFTISKDNAENTLYLQMNNLKTEDTATYYCASIYYYDADYLHWYFDFWGQGALVTVSS VL: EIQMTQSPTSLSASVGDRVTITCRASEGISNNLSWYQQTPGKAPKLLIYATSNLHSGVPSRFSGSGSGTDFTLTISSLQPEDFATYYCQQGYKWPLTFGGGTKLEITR ?
Ans: 0.000651 s⁻¹

Q: Would you kindly repeat that for felinized clone 101 Fab-SASA variant S97Q (VH) (Fab, V domains shown, not shown: small tags and cut ends, Fab-SASA in conditioned medium) VH: DVQLVESGGDLVKPGGSLRLTCVASGLSLTSSSMSWVRQAPGKGLQWVSTIYSNGGTYYTDSVKGRFTISKDNAENTLYLQMNNLKTEDTATYYCAQIYYYDADYLHWYFDFWGQGALVTVSS VL: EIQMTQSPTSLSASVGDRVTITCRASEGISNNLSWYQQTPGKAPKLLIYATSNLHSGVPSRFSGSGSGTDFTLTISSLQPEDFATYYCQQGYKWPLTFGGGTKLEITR ?
Ans: 0.000403 s⁻¹

Q: Would you kindly repeat that for felinized clone 101 Fab-SASA variant G55R (VH) (Fab, V domains shown, not shown: small tags and cut ends) VH: DVQLVESGGDLVKPGGSLRLTCVASGLSLTSSSMSWVRQAPGKGLQWVSTIYSNRGTYYTDSVKGRFTISKDNAENTLYLQMNNLKTEDTATYYCASIYYYDADYLHWYFDFWGQGALVTVSS VL: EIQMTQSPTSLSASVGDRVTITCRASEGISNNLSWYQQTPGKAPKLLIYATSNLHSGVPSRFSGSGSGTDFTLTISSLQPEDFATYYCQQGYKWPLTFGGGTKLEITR ?
Ans: 0.000147 s⁻¹
